# assay.details: Solubility of Compound I maleate salt in solvents (saturated solution, HPLC)
# Format: physicochemical
# recorded.conditions: 50 °C, organic solvent or mixture, thermodynamic from solid; solvent 2-Methoxyethanol; 50±1° C., 24 hours
Structures can show the parent of a compound that is named as a salt.
quantity: solubility at 24 h

Quick one: solubility at 24 h for CC(C)C(=O)N1CCC(c2cc(-c3ccc(NC(=O)c4cn(C(C)C)c(=O)n(-c5ccccn5)c4=O)cc3)c3c(N)ncnn23)CC1 [Compound I maleate salt] ? 14.8 mg/mL

----------
# assay.details: Solubility of Compound I maleate salt in solvents (saturated solution, HPLC)
# Format: physicochemical
# recorded.conditions: 50 °C, organic solvent or mixture, thermodynamic from solid; solvent Toluene; 50±1° C., 24 hours
Where a name gives a salt, the structure may show the parent alone.
quantity: solubility at 24 h (µg/mL)
Reply with just the number (in µg/mL).

Quick one: solubility at 24 h for CC(C)C(=O)N1CCC(c2cc(-c3ccc(NC(=O)c4cn(C(C)C)c(=O)n(-c5ccccn5)c4=O)cc3)c3c(N)ncnn23)CC1 [Compound I maleate salt] ? 200
